Where do the numbers come from? From patent US20250270180A1.

test.description: Single dose PK profile (plasma and tumor) in Colon26 tumor bearing mice
Assay type: in vivo
condition.label: female, athymic BALB/c nude or BALB/c, mouse, po, 100 mg/kg; plasma; 100 mpk p.o.
property.label: bioavailability (%)
Use % as the unit, but write only the number.

# smiles.code, bioavailability, %
measured = [
    ("CNS(=O)(=O)Nc1cccc(Cc2c(CN3CCC3)c3ccc(OC(=O)N(C)C)cc3oc2=O)c1F", 100),
]

Moving on to another compound below.
Name the recorded bioavailability of the compound listed here: `CNS(=O)(=O)Nc1cccc(Cc2c(CN(C)C)c3ccc(OC(=O)N(C)C)cc3oc2=O)c1F`
192

* * *

test.description: eLogD (lipophilicity; pH 7.4)
Type: physicochemical
property.label: chromatographic logD
Just the number, please, no unit attached.

Name the recorded chromatographic logD of the compound listed here: `CNS(=O)(=O)Nc1cccc(Cc2c(CN3CCC3)c3ccc(OC(=O)N(C)C)cc3oc2=O)c1F`
2.9

* * *

test.description: Microsome stability, human
Assay type: in vitro ADME
condition.label: microsomes, 2 μM
property.label: Human (% Reamining @1 hour) (%)
Use % as the unit, but write only the number.

# molecule, observed.result
records = [
    ("C#CCNCc1c(Cc2cccc(NS(=O)(=O)NC)c2F)c(=O)oc2cc(OC(=O)N(C)C)ccc12", 38.1),
    ("CNS(=O)(=O)Nc1cccc(Cc2c(CNCC#N)c3ccc(OC(=O)N(C)C)cc3oc2=O)c1F", 57.7),
    ("Cn1cnc2c(F)c(Nc3ccc(Br)cc3Cl)c(C(=O)NOCCO)cc21 [Reference 1, Selumetinib, reference compound]", 75.8),
    ("CNS(=O)(=O)Nc1cccc(Cc2c(CN3CCNCC3)c3ccc(OC(=O)N(C)C)cc3oc2=O)c1F", 80.1),
    ("CNS(=O)(=O)Nc1nccc(Cc2c(C)c3ccc(Oc4ncccn4)cc3oc2=O)c1F [Reference 2, reference compound]", 107.1),
]

Name the recorded Human (% Reamining @1 hour) of the molecule listed here: `CNS(=O)(=O)Nc1cccc(Cc2c(CN(C)C)c3ccc(OC(=O)N(C)C)cc3oc2=O)c1F`
51.7

Name the recorded Human (% Reamining @1 hour) of the molecule listed here: `CNS(=O)(=O)Nc1cccc(Cc2c(CNC3CC3)c3ccc(OC(=O)N(C)C)cc3oc2=O)c1F`
28.9

* * *

Recorded Tmax by entry
test.description: Single dose PK profile (plasma and tumor) in Colon26 tumor bearing mice
Type: in vivo
condition.label: female, athymic BALB/c nude or BALB/c, mouse, iv, 25 mg/kg; plasma; 25 mpk i.v.
Use min as the unit, but write only the number.

# smiles.code, Tmax / min
measured = [
    ("CNS(=O)(=O)Nc1cccc(Cc2c(CN(C)C)c3ccc(OC(=O)N(C)C)cc3oc2=O)c1F", 30),
]

Moving on to another compound below.
Name the recorded Tmax of the compound listed here: `CNS(=O)(=O)Nc1cccc(Cc2c(CN3CCC3)c3ccc(OC(=O)N(C)C)cc3oc2=O)c1F`
9.6

* * *

test.description: Pharmacokinetics, single dose, 2-hour tissue levels in Colon26 tumor bearing mice
Type: in vivo
condition.label: female, athymic BALB/c nude or BALB/c, mouse, liver, po; single dose 100 mg/kg p.o.; 2-hour post dose; read-out: Liver
property.label: concentration at 2 h (ng/g)
Use ng/g as the unit, but write only the number.

# compound, property.label, observed.result
measured = [
    ("C#CCNCc1c(Cc2cccc(NS(=O)(=O)NC)c2F)c(=O)oc2cc(OC(=O)N(C)C)ccc12", "concentration at 2 h", 17.8),
    ("CNS(=O)(=O)Nc1cccc(Cc2c(CN(C)C)c3ccc(OC(=O)N(C)C)cc3oc2=O)c1F", "concentration at 2 h", 1260),
    ("CNS(=O)(=O)Nc1nccc(Cc2c(C)c3ccc(Oc4ncccn4)cc3oc2=O)c1F [Reference 2, reference compound]", "concentration at 2 h", 1990),
]

Moving on to another compound below.
Name the recorded concentration at 2 h of the compound listed here: `CNS(=O)(=O)Nc1cccc(Cc2c(CNCC#N)c3ccc(OC(=O)N(C)C)cc3oc2=O)c1F`
36.6

* * *

System: A549 pERK
test.description: A549-pERK, 2 h (quantitative Western, Jess)
Format: cell-based
condition.label: Homo sapiens, A549, 2 h, 10 nM, phospho:total ratio normalized to DMSO control
property.label: activity at 0.01 µM
Note to self: number, then unit, no commentary.

Example entries begin here.
# smiles.code, assayed.system, activity at 0.01 µM
data = [
    ("CNS(=O)(=O)Nc1cccc(Cc2c(C)c3cc(Cl)c(OC(=O)N(C)C)cc3oc2=O)c1F", "A549 pERK", "4.51%"),
    ("CCS(=O)(=O)Nc1cccc(Cc2c(CN(C)C)c3cc(Cl)c(OC(=O)N(C)C)cc3oc2=O)c1F", "A549 pERK", "62.6%"),
    ("CCN(CC)Cc1c(Cc2cccc(NS(=O)(=O)NC)c2F)c(=O)oc2cc(OC(=O)N(C)C)ccc12", "A549 pERK", "77.7%"),
]

Name the recorded activity at 0.01 µM of the compound listed here: `CNS(=O)(=O)Nc1cccc(Cc2c(CN3CC(C#N)C3)c3ccc(OC(=O)N(C)C)cc3oc2=O)c1F`
111%

Name the recorded activity at 0.01 µM of the compound listed here: `C#CCN(C)Cc1c(Cc2cccc(NS(=O)(=O)NC)c2F)c(=O)oc2cc(OC(=O)N(C)C)ccc12`
62.1%

Name the recorded activity at 0.01 µM of the compound listed here: `CNS(=O)(=O)Nc1cccc(Cc2c(CNC(=O)C(C)C)c3ccc(OC(=O)N(C)C)cc3oc2=O)c1F`
105%

Name the recorded activity at 0.01 µM of the compound listed here: `CNS(=O)(=O)Nc1cccc(Cc2c(CN(C)C3CCC3)c3ccc(OC(=O)N(C)C)cc3oc2=O)c1F`
96.4%

Name the recorded activity at 0.01 µM of the compound listed here: `CCC(=O)NCc1c(Cc2cccc(NS(=O)(=O)NC)c2F)c(=O)oc2cc(OC(=O)N(C)C)ccc12`
97.4%

Name the recorded activity at 0.01 µM of the compound listed here: `CNS(=O)(=O)Nc1cccc(Cc2c(CNc3ccccc3)c3ccc(OC(=O)N(C)C)cc3oc2=O)c1F`
54.3%

Name the recorded activity at 0.01 µM of the compound listed here: `Cc1c(Cc2ccnc(NS(=O)(=O)C3CC3)c2F)c(=O)oc2cc(OC(=O)N(C)C)ccc12`
46.3%

Name the recorded activity at 0.01 µM of the compound listed here: `CNS(=O)(=O)Nc1cccc(Cc2c(CN3CC(OC)C3)c3ccc(OC(=O)N(C)C)cc3oc2=O)c1F`
75.3%

* * *

test.description: Microsome stability, human
Format: in vitro ADME
condition.label: microsomes, 2 μM
property.label: Human (% Reamining @1 hour) (%)
Use % as the unit, but write only the number.

Example entries begin here.
# smiles.code, observed.result
data = [
    ("CNS(=O)(=O)Nc1cccc(Cc2c(CNc3ccn[nH]3)c3ccc(OC(=O)N(C)C)cc3oc2=O)c1F", 32.9),
    ("CNS(=O)(=O)Nc1cccc(Cc2c(CN3CCN(C)CC3)c3ccc(OC(=O)N(C)C)cc3oc2=O)c1F", 75.8),
    ("CNS(=O)(=O)Nc1cccc(Cc2c(C)c3ccc(OC(=O)N(C)C)cc3oc2=O)c1F", 61.1),
]

Name the recorded Human (% Reamining @1 hour) of the molecule listed here: `CNS(=O)(=O)Nc1cccc(Cc2c(CN3CCN(Cc4ccccc4)CC3)c3ccc(OC(=O)N(C)C)cc3oc2=O)c1F`
1.4

* * *

Recorded half-life by entry
test.description: Single dose PK profile (plasma and tumor) in Colon26 tumor bearing mice
Type: in vivo
condition.label: female, athymic BALB/c nude or BALB/c, mouse, iv, 25 mg/kg; plasma; 25 mpk i.v.
Use h as the unit, but write only the number.

# smiles.code, unit.spec, half-life
data = [
    ("CNS(=O)(=O)Nc1cccc(Cc2c(CN(C)C)c3ccc(OC(=O)N(C)C)cc3oc2=O)c1F", "h", 0.63),
]

Name the recorded half-life of the compound listed here: `CNS(=O)(=O)Nc1cccc(Cc2c(CN3CCC3)c3ccc(OC(=O)N(C)C)cc3oc2=O)c1F`
2.39

* * *

test.description: Single dose PK profile (plasma and tumor) in Colon26 tumor bearing mice
Type: in vivo
condition.label: female, mouse, iv, 25 mg/kg; tumor; 25 mpk i.v.
Experimental: Female mice (either athymic BALC/c nude, or BALB/c mice) were inoculated with a single subcutaneous injection of 0.1 ml of mouse Colon-26 cell suspension (1×10^5 cells per animal) in the right flank region. […]
property.label: half-life (h)
Use h as the unit, but write only the number.

Name the recorded half-life of the molecule listed here: CNS(=O)(=O)Nc1cccc(Cc2c(CN(C)C)c3ccc(OC(=O)N(C)C)cc3oc2=O)c1F [Compound 9]
3.46
